Attribution: patent US20260116991A1

System: monkey GPC3-His protein (monkey)
Protocol notes: ELISA, monkey GPC3-His coated; antibody 0.004 nM
Assay endpoint: OD450 nm
Returns: the value as a bare number; no unit string appended.

Some entries whose results are on file:
Binder: hAb003LH1L1a (antibody, human IgG1, V domains shown) VH: EVQLVQSGAEVKKPGSSVKVSCKASGYTFSDYEMHWVRQAPGQGLEWMGTIDPETGNTAYTQKFMDRVTITADKSTSTAYMELSSLRSEDTAVYYCTRGYSFTYWGQGTLVTVSS VL: DIVMTQTPLSLPVTPGEPASISCRSSQNIVHSDGNTYLQWYLQKPGQSPQLLIFKVSNRFSGVPDRFSGSGSGTDFTLKISRVEAEDVGVYYCFQGSHVPFTFGQGTKLEIK
OD450 nm: 0.148

Binder: hAb007LH3L1b (antibody, human IgG1, V domains shown) VH: EVQLVQSGAEVKKPGSSVKVSCKASGYTFTDYEMHWVRQAPGQGLEWMGTIDPETGNTAYNQKFKGRVTLTADKSTSTAYMELSSLRSEDTAVYYCTRPYSLTYWGQGTLVTVSS VL: DIVMTQTPLSLPVTPGEPASISCRSSQSFVHSNRDTYLQWYLQKPGQSPQLLIYKVSNRFSGVPDRFSGSGSGTDFTLKISRVEAEDVGVYYCFQGSHVPYTFGQGTKLEIK
OD450 nm: 0.103

Consider the record given below.
What value of measured OD450 nm is listed for hAb007LH3L1a (antibody, human IgG1, V domains shown) VH: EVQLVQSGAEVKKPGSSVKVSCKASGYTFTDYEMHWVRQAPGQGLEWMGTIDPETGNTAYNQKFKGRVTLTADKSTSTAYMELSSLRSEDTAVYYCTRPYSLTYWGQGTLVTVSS VL: DIVMTQTPLSLPVTPGEPASISCRSSQSFVHSDGDTYLQWYLQKPGQSPQLLIYKVSNRFSGVPDRFSGSGSGTDFTLKISRVEAEDVGVYYCFQGSHVPYTFGQGTKLEIK ? 0.079
